- targetUnderTest: T1, Rhesus serum albumin (Rhesus, UniProt Q28522 17-600, limits assumed)
- T1 construct: Bought from Sigma (A4297)
- T1 sequence (Q28522 17-600 limits assumed): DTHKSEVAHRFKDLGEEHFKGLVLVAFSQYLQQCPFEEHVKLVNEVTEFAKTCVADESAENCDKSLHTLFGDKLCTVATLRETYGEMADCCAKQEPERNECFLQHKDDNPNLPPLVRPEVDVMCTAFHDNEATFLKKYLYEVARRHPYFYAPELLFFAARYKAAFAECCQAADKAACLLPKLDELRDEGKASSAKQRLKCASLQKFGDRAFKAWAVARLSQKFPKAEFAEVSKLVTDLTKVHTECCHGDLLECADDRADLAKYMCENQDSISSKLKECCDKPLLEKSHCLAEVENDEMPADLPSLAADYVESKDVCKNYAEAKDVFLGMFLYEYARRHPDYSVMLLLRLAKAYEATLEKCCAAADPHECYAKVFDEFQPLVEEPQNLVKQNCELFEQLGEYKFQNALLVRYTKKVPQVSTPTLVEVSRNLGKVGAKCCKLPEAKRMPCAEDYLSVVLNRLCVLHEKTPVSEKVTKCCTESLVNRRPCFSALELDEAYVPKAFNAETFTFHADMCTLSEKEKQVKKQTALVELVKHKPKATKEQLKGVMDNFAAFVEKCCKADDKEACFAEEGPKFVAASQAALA
- assayDetails: SPR (ProteOn XPR-36), albumin immobilized, ABDCon as analyte
Ends that are not written are not given here.
outcomeMeasure: Kd (nM)
Just the number please, in nM, no unit attached.

Retrieve Kd measured for LKEAKEKAIEELKKAGITSDYYFDLINKAKTVEGVNALKDEILKA (designed binder, not fully specified (N-terminus), Expressed in E. coli with an N-terminal 8-His tag; measured mass 6383 Da; not shown: N-terminal 8-His tag) [ABDCon (non-natural albumin binding domain consensus)] and print it.
0.0601

Source of measurements: patent US20160083436A1
